Please provide measured pIC50 for the entries that follow.
System: Staphylococcus aureus
Assay: Antibacterial activity against methicillin-resistant Staphylococcus aureus ATCC 33591 by CLSI method
Assay type: functional, organism-based
Conditions: Staphylococcus aureus, ATCC 33591; read-out: IC50
In simple prose, pIC50 is minus the logarithm base ten of a concentration in moles per litre.

Exam item: Form field - read-out: pIC50; system: Staphylococcus aureus; submitted item: COc1ccc2[nH]cc(C(c3ccc(F)c(Br)c3)c3c[nH]c4ccc(OC)cc34)c2c1
Marked response: 5.33

Exam item: Record lookup: for Staphylococcus aureus, what pIC50 belongs to Oc1ccccc1C(c1c[nH]c2ccccc12)c1c[nH]c2ccccc12 ?
Marked response: 4.44

Exam item: # get_value(readout= pIC50, system= Staphylococcus aureus) for COc1ccc2[nH]cc(C(c3cc(F)cc(F)c3)c3c[nH]c4ccc(OC)cc34)c2c1
Marked response: 5.16

Exam item: For Staphylococcus aureus, provide pIC50 of Oc1ccc(C(c2c[nH]c3ccccc23)c2c[nH]c3ccccc23)cc1 please.
Marked response: 4.75

Exam item: // fetch Staphylococcus aureus pIC50 for COc1ccc2[nH]cc(C(c3c(Cl)cccc3Cl)c3c[nH]c4ccc(OC)cc34)c2c1
Marked response: 4.77

Attribution: ChEMBL document CHEMBL2375321
